The measured values listed here are drawn from PubChem BioAssay AID1845207.

- System: NCI-H1876 tumor spheroid viability
- ASSAY_COMMENT: Anticancer human tumor NCI-H1876 cell line growth inhibition;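 also: spheroids exposed to compounds for seven days before the viability read; percent of DMSO vehicle control viability so 100% = vehicle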
- MEASUREMENT_CONDITIONS: second compound 31.6 µM; first compound 3 µM; hits give low values; spheroids with HUVEC and MSC
OBSERVED_PROPERTY: viability, T/C (%)
The answer is to be given in %; state only the numeric part.

Sample CNCc1ccc(-c2cc(-c3nc(-c4ccc(S(=O)(=O)C(C)C)cc4)cnc3N)on2)cc1 + Cn1nnc2c(C(N)=O)ncn2c1=O ; viability, T/C observed: 45.7

Sample Cc1sc2c(c1C)C(c1ccc(Cl)cc1)=NC(CC(=O)Nc1ccc(O)cc1)c1nnc(C)n1-2 (centres undefined) + Cn1nnc2c(C(N)=O)ncn2c1=O ; viability, T/C observed: 8.31

Sample O=C(c1cc(Cc2n[nH]c(=O)c3ccccc23)ccc1F)N1CCN(C(=O)C2CC2)CC1 + Cn1nnc2c(C(N)=O)ncn2c1=O ; viability, T/C observed: 55.7

Sample Cn1ncnc1[C@H]1c2n[nH]c(=O)c3cc(F)cc(c23)N[C@@H]1c1ccc(F)cc1 + Cn1nnc2c(C(N)=O)ncn2c1=O ; viability, T/C observed: 4.86
